Task for the reader: assign each of the following molecules its reported log2 fold change.
target: ZFAND6 (UniProt Q6FIF0); test: log2 fold change, soluble protein after heating vs DMSO (PISA); higher = thermal stabilisation; K562 cells, 10 uM, 30 min; active = over 0.2 and 3.5 SD of the protein, either way, in both replicates (recomputed)
Sequence (Q6FIF0 whole entry, looked up): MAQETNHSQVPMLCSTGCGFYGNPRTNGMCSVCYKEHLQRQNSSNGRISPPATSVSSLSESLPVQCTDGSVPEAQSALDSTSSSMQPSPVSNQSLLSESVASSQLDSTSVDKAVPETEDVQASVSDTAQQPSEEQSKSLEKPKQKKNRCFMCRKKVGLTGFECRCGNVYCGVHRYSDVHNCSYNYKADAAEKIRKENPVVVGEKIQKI
Targets with a hit are over-represented here; the source holds about 7,900 in all. About 0.6% of all pairs of compound and target were hits.
One number for each entry.

- MOLECULE: "C/C(=N\\NC(=O)c1cccc(S(=O)(=O)N2CCOCC2)c1)c1cc(Cl)ccc1O"
  log2 fold change: -0.075
- MOLECULE: "CS(=O)(=O)CCNCc1ccc(-c2ccc3ncnc(Nc4ccc(OCc5cccc(F)c5)c(Cl)c4)c3c2)o1 [lapatinib]"
  log2 fold change: -0.106
- MOLECULE: "CC(C)(C)Cn1c(N)nc2ccc(-c3[nH]c(C(C)(C)C)nc3-c3ccc(F)cc3)nc21 [ralimetinib]"
  log2 fold change: -0.048
- MOLECULE: "COc1cc(Nc2ncc3c(n2)-c2ccc(Cl)cc2C(c2c(F)cccc2OC)=NC3)ccc1C(=O)O [alisertib]"
  log2 fold change: -0.079
- MOLECULE: "CNc1nc(-c2ccc3c(N)n[nH]c3c2)cc(N2C[C@@H](C(=O)NC3CCCCC3)CC[C@H]2C)n1"
  log2 fold change: -0.017
- MOLECULE: "C[C@@H]1COCCN1c1cc(C2(S(C)(=O)=O)CC2)nc(-c2cccc3[nH]ccc23)n1"
  log2 fold change: 0.127

For every item below, please supply its log2 fold change.
1. Cc1ccc(Sc2cncc3sc(C(N)=O)cc23)cc1
2. O=C(Nc1nc2ccccc2n1CCN1CCOCC1)c1cccc([N+](=O)[O-])c1 [IRAK-1-4 Inhibitor I]
3. Cn1cc(-c2ccc3c(c2)CCN3C(=O)Cc2cccc(C(F)(F)F)c2)c2c(N)ncnc21
4. CC[C@@H]1C(=O)N(C)c2cnc(Nc3ccc(C(=O)N[C@H]4CC[C@H](N5CCN(CC6CC6)CC5)CC4)cc3OC)nc2N1C(C)C [volasertib]
5. CN1CC[C@H](c2c(O)cc(O)c3c(=O)cc(-c4ccccc4Cl)oc23)[C@H](O)C1 [alvocidib]
6. O=C(Nc1cccc(Nc2ncc(Br)c(NCCc3cnc[nH]3)n2)c1)N1CCCC1
7. Fc1ccc(Cl)cc1-c1nc(Nc2ccncc2)c2nccnc2n1

1. -0.01
2. 0.032
3. 0.067
4. 0.09
5. 0.028
6. -0.058
7. -0.05

Items follow; give log2 fold change for each.
1. O=C(CCCCCCC(=O)Nc1ccccc1)NO [vorinostat]
2. CCCS(=O)(=O)Nc1ccc(F)c(C(=O)c2c[nH]c3ncc(-c4ccc(Cl)cc4)cc23)c1F [vemurafenib]
3. COc1cccc2cc(-c3nc([C@H]4CC[C@H](C(=O)O)CC4)n4ncnc(N)c34)[nH]c12
4. CNC(=O)c1ccc(Nc2ncc(C(F)(F)F)c(NCc3nccnc3N(C)S(C)(=O)=O)n2)cc1 [defactinib]
5. Cc1cccc(-c2[nH]c(C(C)(C)C)nc2-c2ccc3nccnc3c2)n1

1: 0.04; 2: -0.024; 3: 0.046; 4: -0.045; 5: -0.088

* * *

target: ZADH2 (UniProt Q8N4Q0); experiment: log2 fold change, soluble protein after heating vs DMSO (PISA); higher = thermal stabilisation; K562 cells, 10 uM, 30 min; active = over 0.2 and 3.5 SD of the protein, either way, in both replicates (recomputed)
Sequence (Q8N4Q0 whole entry, looked up): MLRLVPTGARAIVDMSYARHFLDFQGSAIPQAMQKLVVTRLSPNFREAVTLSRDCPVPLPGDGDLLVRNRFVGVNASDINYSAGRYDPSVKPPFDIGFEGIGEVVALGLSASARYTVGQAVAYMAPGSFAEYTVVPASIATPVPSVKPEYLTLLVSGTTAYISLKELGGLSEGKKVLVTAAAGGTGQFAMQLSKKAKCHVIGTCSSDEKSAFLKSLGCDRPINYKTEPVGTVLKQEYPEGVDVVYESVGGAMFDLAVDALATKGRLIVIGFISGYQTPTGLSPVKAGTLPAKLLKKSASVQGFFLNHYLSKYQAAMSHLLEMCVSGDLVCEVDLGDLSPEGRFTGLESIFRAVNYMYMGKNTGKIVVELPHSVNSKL
The full data set covers some 7,900 targets. This sample favours those with a hit. About 0.6% of all pairs of compound and target were hits.
REPORTED METRIC: log2 fold change

I have 6 molecules here; please give me log2 fold change for each one.
1. CCn1c(C(=O)N(C2CC2)C2CC2)cc2c3c(ncn3C)c(Nc3cc(C)n(C)n3)nc21
2. O=C1NC(=O)/C(=C\c2ccc3nccnc3c2)S1
3. NC(=O)c1cnc(N[C@@H]2CCCC[C@@H]2N)nc1Nc1cccc(-n2nccn2)c1
4. Cc1ccc(NC(=O)c2cccc(N(C)C)c2)cc1NC(=O)c1ccc(O)cc1
5. CS(=O)(=O)N1CCN(Cc2cc3nc(-c4cccc5[nH]ncc45)nc(N4CCOCC4)c3s2)CC1 [pictilisib]
6. CNC(=O)c1ccccc1Nc1nc(Nc2ccc(N3CCOCC3)cc2OC)ncc1Cl

["0.154 (inactive)", "-0.05 (inactive)", "-0.025 (inactive)", "-0.047 (inactive)", "0.14 (inactive)", "-0.051 (inactive)"]

Provide log2 fold change values for the following items, in order.
1. O=C1c2ccccc2-c2n[nH]c3cccc1c23
2. Fc1ccc(Cl)cc1-c1nc(Nc2ccncc2)c2nccnc2n1
3. COc1ccc(Cn2ccc3ccc(C(=O)NO)cc32)cc1

["0.03 (inactive)", "-0.011 (inactive)", "0.008 (inactive)"]

Provide log2 fold change values for the following items, in order.
1. C[C@@H](N)c1ccc(C(=O)Nc2ccnc3[nH]ccc23)cc1
2. CN1CCN(CCOc2cc(OC3CCOCC3)c3c(Nc4c(Cl)ccc5c4OCO5)ncnc3c2)CC1 [saracatinib]
3. CN1CCN(c2nc(C3=C(c4c[nH]c5ccccc45)C(=O)NC3=O)c3ccccc3n2)CC1 [sotrastaurin]

-0.071 (inactive)
0.005 (inactive)
-0.015 (inactive)

* * *

For each entry below, report its log2 fold change value.
biological target: YLPM1 (UniProt P49750); test: log2 fold change, soluble protein after heating vs DMSO (PISA); higher = thermal stabilisation; K562 cells, 10 uM, 30 min; active = over 0.2 and 3.5 SD of the protein, either way, in both replicates (recomputed)
Sequence (P49750 whole entry, looked up): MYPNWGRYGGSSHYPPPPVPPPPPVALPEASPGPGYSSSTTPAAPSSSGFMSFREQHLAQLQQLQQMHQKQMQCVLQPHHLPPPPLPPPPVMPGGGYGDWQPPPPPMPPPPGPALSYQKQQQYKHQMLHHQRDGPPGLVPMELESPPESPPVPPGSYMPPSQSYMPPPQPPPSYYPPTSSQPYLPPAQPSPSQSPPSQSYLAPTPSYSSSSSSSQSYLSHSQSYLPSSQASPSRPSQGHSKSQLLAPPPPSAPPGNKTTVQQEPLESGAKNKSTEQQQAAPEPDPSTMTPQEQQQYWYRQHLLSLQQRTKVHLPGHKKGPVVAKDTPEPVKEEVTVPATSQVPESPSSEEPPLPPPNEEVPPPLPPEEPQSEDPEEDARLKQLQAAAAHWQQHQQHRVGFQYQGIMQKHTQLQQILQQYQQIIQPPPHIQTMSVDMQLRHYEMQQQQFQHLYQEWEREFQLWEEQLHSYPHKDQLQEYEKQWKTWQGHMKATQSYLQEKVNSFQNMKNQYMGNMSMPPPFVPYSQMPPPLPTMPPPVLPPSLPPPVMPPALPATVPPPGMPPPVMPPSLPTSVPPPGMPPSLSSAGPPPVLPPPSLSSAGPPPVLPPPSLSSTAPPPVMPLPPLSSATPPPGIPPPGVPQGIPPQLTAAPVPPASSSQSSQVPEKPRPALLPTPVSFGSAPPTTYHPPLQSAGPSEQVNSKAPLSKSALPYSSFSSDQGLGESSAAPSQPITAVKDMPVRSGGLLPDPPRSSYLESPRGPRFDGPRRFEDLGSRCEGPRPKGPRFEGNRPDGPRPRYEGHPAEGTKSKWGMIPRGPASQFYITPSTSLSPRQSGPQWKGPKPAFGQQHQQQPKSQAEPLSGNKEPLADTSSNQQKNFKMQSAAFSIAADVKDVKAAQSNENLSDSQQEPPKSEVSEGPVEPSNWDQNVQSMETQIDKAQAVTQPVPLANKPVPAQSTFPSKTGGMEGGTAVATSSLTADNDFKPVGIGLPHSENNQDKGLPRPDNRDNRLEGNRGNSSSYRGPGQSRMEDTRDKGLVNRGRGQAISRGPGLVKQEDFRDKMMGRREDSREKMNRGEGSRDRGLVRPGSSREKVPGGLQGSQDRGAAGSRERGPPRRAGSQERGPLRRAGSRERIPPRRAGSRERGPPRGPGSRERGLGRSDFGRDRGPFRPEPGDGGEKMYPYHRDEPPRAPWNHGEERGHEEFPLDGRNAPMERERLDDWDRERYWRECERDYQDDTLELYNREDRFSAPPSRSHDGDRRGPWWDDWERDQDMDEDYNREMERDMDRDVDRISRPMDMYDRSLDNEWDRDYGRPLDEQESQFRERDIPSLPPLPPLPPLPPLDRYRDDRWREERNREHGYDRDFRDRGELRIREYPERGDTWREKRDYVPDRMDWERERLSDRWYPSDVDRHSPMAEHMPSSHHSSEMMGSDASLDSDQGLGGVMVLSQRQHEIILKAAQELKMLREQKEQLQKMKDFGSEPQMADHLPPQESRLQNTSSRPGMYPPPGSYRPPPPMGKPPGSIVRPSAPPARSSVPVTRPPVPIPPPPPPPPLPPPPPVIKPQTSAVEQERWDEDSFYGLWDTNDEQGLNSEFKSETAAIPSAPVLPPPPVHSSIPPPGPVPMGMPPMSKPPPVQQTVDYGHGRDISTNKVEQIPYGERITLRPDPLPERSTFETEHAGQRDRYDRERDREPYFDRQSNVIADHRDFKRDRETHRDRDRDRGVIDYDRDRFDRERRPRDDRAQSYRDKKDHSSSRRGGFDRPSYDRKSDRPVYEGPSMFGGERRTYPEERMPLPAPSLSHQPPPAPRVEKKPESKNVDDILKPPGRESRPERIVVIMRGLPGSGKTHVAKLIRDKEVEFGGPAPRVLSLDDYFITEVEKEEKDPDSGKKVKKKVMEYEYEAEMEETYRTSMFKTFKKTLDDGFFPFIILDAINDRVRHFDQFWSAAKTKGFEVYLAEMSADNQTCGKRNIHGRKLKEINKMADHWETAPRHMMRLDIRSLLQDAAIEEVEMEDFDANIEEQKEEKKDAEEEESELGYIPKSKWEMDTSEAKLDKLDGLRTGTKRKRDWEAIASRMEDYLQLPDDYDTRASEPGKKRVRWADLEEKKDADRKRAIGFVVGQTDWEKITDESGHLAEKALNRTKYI
About 7,900 targets were measured; listed, in parts, are those with a hit and a random draw of the rest. About 0.6% of all pairs of compound and target were hits.

- COMPOUND: "NC(=O)c1cnc(N[C@@H]2CCCC[C@@H]2N)nc1Nc1cccc(-n2nccn2)c1"
  log2 fold change: "-0.034 (inactive)"
- COMPOUND: "Cn1cncc1[C@@](N)(c1ccc(Cl)cc1)c1ccc2c(c1)c(-c1cccc(Cl)c1)cc(=O)n2C [tipifarnib]"
  log2 fold change: "-0.048 (inactive)"
- COMPOUND: "O=C(Nc1cccc(Nc2ncc(Br)c(NCCc3cnc[nH]3)n2)c1)N1CCCC1"
  log2 fold change: "-0.083 (inactive)"
- COMPOUND: "COc1cccc2cc(-c3nc([C@H]4CC[C@H](C(=O)O)CC4)n4ncnc(N)c34)[nH]c12"
  log2 fold change: "0.053 (inactive)"
- COMPOUND: "O=C(O)c1ccc2c(c1)nc(Nc1cccc(Cl)c1)c1ccncc12 [silmitasertib]"
  log2 fold change: "-0.009 (inactive)"

Switching to the query record.
The recorded log2 fold change for entry Cc1ncc(-c2ccnc(Nc3ccc(S(C)(=O)=O)cc3)n2)n1C(C)C equals -0.011 (inactive)

* * *

molecular target: ZNF217 (UniProt O75362); assay: log2 fold change, soluble protein after heating vs DMSO (PISA); higher = thermal stabilisation; K562 cells, 10 uM, 30 min; active = over 0.2 and 3.5 SD of the protein, either way, in both replicates (recomputed)
Sequence (O75362 whole entry, looked up): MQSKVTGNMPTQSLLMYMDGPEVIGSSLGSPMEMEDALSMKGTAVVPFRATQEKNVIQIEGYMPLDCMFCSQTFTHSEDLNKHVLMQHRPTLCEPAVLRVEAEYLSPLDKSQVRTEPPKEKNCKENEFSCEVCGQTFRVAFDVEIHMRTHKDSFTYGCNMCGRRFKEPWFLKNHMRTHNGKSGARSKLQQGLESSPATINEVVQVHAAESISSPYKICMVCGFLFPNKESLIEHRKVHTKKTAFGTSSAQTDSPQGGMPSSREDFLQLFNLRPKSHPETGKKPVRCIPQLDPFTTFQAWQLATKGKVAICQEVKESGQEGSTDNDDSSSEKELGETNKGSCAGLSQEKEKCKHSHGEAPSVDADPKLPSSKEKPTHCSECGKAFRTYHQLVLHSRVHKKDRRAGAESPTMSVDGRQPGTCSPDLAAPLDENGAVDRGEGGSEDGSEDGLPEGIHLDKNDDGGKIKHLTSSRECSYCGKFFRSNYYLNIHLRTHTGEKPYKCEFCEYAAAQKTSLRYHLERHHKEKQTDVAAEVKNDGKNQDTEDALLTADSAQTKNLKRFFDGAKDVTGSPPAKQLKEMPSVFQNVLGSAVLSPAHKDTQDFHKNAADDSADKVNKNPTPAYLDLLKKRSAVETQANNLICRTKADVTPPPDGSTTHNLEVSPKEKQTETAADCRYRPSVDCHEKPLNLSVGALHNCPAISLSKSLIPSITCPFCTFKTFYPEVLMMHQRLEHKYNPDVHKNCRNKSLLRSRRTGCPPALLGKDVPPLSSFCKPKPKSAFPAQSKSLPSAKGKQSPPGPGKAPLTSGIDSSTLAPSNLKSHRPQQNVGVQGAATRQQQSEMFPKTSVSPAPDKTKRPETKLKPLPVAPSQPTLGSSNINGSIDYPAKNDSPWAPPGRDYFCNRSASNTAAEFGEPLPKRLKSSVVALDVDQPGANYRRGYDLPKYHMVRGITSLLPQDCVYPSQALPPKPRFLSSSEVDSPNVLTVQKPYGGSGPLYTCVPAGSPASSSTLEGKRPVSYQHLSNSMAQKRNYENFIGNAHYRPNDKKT
About 7,900 targets were measured; listed, in parts, are those with a hit and a random draw of the rest. About 0.6% of all pairs of compound and target were hits.
Pick one: 1 = active, 0 = inactive

- MOLECULAR STRING: "CCCS(=O)(=O)Nc1ccc(F)c(C(=O)c2c[nH]c3ncc(Cl)cc23)c1F"
  EXPERIMENTAL TARGET: "ZNF217 (UniProt O75362)"
  ASSIGNED CLASS: 1
- MOLECULAR STRING: "Cc1ccc(C(=O)N(CCCN)[C@@H](c2nc3cc(Cl)ccc3c(=O)n2Cc2ccccc2)C(C)C)cc1"
  EXPERIMENTAL TARGET: "ZNF217 (UniProt O75362)"
  ASSIGNED CLASS: 0
- MOLECULAR STRING: "NC1(c2ccc(-c3nc4ccn5c(=O)[nH]nc5c4cc3-c3ccccc3)cc2)CCC1"
  EXPERIMENTAL TARGET: "ZNF217 (UniProt O75362)"
  ASSIGNED CLASS: 0

Okay, now this molecule:
Write down the call the test reported for this molecule. Item: CC(C)C[C@@H](C=O)NC(=O)[C@H](CC(C)C)NC(=O)[C@H](CC(C)C)NC(=O)OCc1ccccc1
0

* * *

Give measured log2 fold change for each item. Keep answers brief.
biological target: YIPF6 (UniProt Q96EC8); test: log2 fold change, soluble protein after heating vs DMSO (PISA); higher = thermal stabilisation; K562 cells, 10 uM, 30 min; active = over 0.2 and 3.5 SD of the protein, either way, in both replicates (recomputed)
Sequence (Q96EC8 whole entry, looked up): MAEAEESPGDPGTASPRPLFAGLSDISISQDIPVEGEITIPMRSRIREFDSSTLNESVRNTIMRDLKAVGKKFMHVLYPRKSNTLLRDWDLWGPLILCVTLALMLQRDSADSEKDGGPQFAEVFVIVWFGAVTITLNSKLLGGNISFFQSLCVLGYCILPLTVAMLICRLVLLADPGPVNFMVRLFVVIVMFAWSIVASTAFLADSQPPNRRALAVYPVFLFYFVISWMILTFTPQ
About 7,900 targets were measured; listed, in parts, are those with a hit and a random draw of the rest. About 0.6% of all pairs of compound and target were hits.
Give bare numbers.

- COMPOUND: "CCCS(=O)(=O)Nc1ccc(F)c(C(=O)c2c[nH]c3ncc(-c4ccc(Cl)cc4)cc23)c1F [vemurafenib]"
  REPORTED METRIC: "log2 fold change"
  RECORDED MEASUREMENT: -0.15
- COMPOUND: "Cn1cc(-c2ccc3nnc(C(F)(F)c4ccc5ncccc5c4)n3n2)cn1"
  REPORTED METRIC: "log2 fold change"
  RECORDED MEASUREMENT: 0.032
- COMPOUND: "Cc1ccc(NC(=O)c2cccc(N(C)C)c2)cc1NC(=O)c1ccc(O)cc1"
  REPORTED METRIC: "log2 fold change"
  RECORDED MEASUREMENT: 0.024
- COMPOUND: "NC1(Cc2ccc(Cl)cc2)CCN(c2ncnc3[nH]ccc23)CC1"
  REPORTED METRIC: "log2 fold change"
  RECORDED MEASUREMENT: -0.015

Okay, here is my list. What is log2 fold change for each of these?
1. COc1cc2ncnc(Nc3ccc(F)c(Cl)c3)c2cc1OCCCN1CCOCC1 [gefitinib]
2. CC[C@@H]1C(=O)N(C)c2cnc(Nc3ccc(C(=O)NC4CCN(C)CC4)cc3OC)nc2N1C1CCCC1

1: 0.005; 2: -0.001

Quick one: give me log2 fold change for each item below, same order please.
1. Cc1ccc(C(=O)N(CCCN)[C@@H](c2nc3cc(Cl)ccc3c(=O)n2Cc2ccccc2)C(C)C)cc1 [ispinesib]
2. C=CC(=O)N1CCC[C@@H](n2nc(-c3ccc(Oc4ccccc4)cc3)c3c(N)ncnc32)C1 [ibrutinib]

1: 0.02; 2: -0.001
